assay: In vitro binding assay: free test drug recovered after 3 h incubation with and without patiromer in SGF, acetate buffer or SIF; conditions: QSPR input data; test matrix SIF
Counter-ions that a name gives are not always drawn.
Classify: y when SIF is strictly less than 80; n when SIF is not.

[
  {
    "compound": "Oc1ncnc2[nH]ncc12",
    "label": "n"
  },
  {
    "compound": "C=C[C@H]1C[N@@]2CC[C@H]1C[C@@H]2[C@@H](O)c1ccnc2ccc(OC)cc12",
    "label": "y"
  },
  {
    "compound": "Cc1cnc(C(=O)NCCc2ccc(S(=O)(=O)NC(=O)NC3CCCCC3)cc2)cn1 [Glipizide]",
    "label": "n"
  },
  {
    "compound": "CC1(C)S[C@@H]2[C@H](NC(=O)[C@H](N)c3ccc(O)cc3)C(=O)N2[C@H]1C(=O)O",
    "label": "n"
  },
  {
    "compound": "C[C@@H](NCCCc1cccc(C(F)(F)F)c1)c1cccc2ccccc12 [Cinacalcet HCl]",
    "label": "y"
  },
  {
    "compound": "NCCCC[C@H](N[C@@H](CCc1ccccc1)C(=O)O)C(=O)N1CCC[C@H]1C(=O)O",
    "label": "n"
  }
]

---

assay: logD determination (liquid-liquid distribution chromatography, octanol-coated column); conditions: octanol-coated column with octanol-saturated mobile phase, pH 4.5
Where a name gives a salt, the structure may show the parent alone.
Readings of chromatographic logD for the listed compounds

[
  {
    "compound": "COC(=O)[C@H](c1ccccc1Cl)N1CCc2sccc2C1 [Clopidogrel bisulfate]",
    "qualifier symbol": "=",
    "chromatographic logD": 3.67
  },
  {
    "compound": "C[C@@H](NCCCc1cccc(C(F)(F)F)c1)c1cccc2ccccc12 [Cinacalcet HCl]",
    "qualifier symbol": "=",
    "chromatographic logD": 2.44
  },
  {
    "compound": "CC1(C)S[C@@H]2[C@H](NC(=O)[C@H](N)c3ccc(O)cc3)C(=O)N2[C@H]1C(=O)O",
    "qualifier symbol": "=",
    "chromatographic logD": 0.46
  },
  {
    "compound": "Cc1cc2nc3c(=O)[nH]c(=O)nc-3n(C[C@H](O)[C@H](O)[C@H](O)CO)c2cc1C",
    "qualifier symbol": "<",
    "chromatographic logD": -1.5
  },
  {
    "compound": "N[C@@H](Cc1cc(I)c(Oc2cc(I)c(O)c(I)c2)c(I)c1)C(=O)O [Levothyroxine sodium]",
    "qualifier symbol": "=",
    "chromatographic logD": 3.44
  },
  {
    "compound": "O=C1NC(=O)C(c2ccccc2)(c2ccccc2)N1 [Phenytoin sodium]",
    "qualifier symbol": "=",
    "chromatographic logD": 2.43
  },
  {
    "compound": "CCOC(=O)C1=C(COCCN)NC(C)=C(C(=O)OC)C1c1ccccc1Cl (centres unmarked) [Amlodipine besylate]",
    "qualifier symbol": "=",
    "chromatographic logD": 1.44
  },
  {
    "compound": "Oc1ncnc2[nH]ncc12",
    "qualifier symbol": "=",
    "chromatographic logD": -0.3
  }
]

---

assay: logP determination by titration in octanol/water
readout type: logP

[
  {
    "compound": "CC(=O)CC(c1ccccc1)c1c(O)c2ccccc2oc1=O (racemic) [Warfarin (R/S), Warfarin]",
    "readout type": "logP",
    "value observed": 3.25
  }
]

---

test: logD determination (liquid-liquid distribution chromatography, octanol-coated column); settings: octanol-coated column with octanol-saturated mobile phase, pH 4.5
Where a name gives a salt, the structure may show the parent alone.
Given measured chromatographic logD, output yes if it is greater than or equal to 1 and no if not.

[
  {
    "compound": "CC(=O)Oc1ccccc1C(=O)O [Aspirin]",
    "label": "no"
  },
  {
    "compound": "O=C(NC[C@H]1CN(c2ccc(N3CCOCC3=O)cc2)C(=O)O1)c1ccc(Cl)s1 [Rivaroxaban]",
    "label": "yes"
  },
  {
    "compound": "COCCc1ccc(OCC(O)CNC(C)C)cc1 (stereo not shown) [Metoprolol tartrate]",
    "label": "no"
  },
  {
    "compound": "Cc1ncc(C[n+]2csc(CCO)c2C)c(N)n1 [Thiamin]",
    "label": "no"
  },
  {
    "compound": "NCCCC[C@H](N[C@@H](CCc1ccccc1)C(=O)O)C(=O)N1CCC[C@H]1C(=O)O [Lisinopril]",
    "label": "no"
  },
  {
    "compound": "CC(=O)S[C@@H]1CC2=CC(=O)CC[C@]2(C)[C@H]2CC[C@@]3(C)[C@@H](CC[C@@]34CCC(=O)O4)[C@H]12 [Spironolactone]",
    "label": "yes"
  }
]

---

assay: logD determination (liquid-liquid distribution chromatography, octanol-coated column); details: octanol-coated column with octanol-saturated mobile phase, pH 3
Where a name gives a salt, the structure may show the parent alone.
Parameter threshold = 1. Response is 1 when chromatographic logD meets or exceeds it, else -1.

[
  {
    "compound": "N[C@@H](Cc1cc(I)c(Oc2cc(I)c(O)c(I)c2)c(I)c1)C(=O)O [Levothyroxine sodium]",
    "label": 1
  },
  {
    "compound": "CCOC(=O)C1=C(COCCN)NC(C)=C(C(=O)OC)C1c1ccccc1Cl (stereo not shown) [Amlodipine besylate]",
    "label": 1
  },
  {
    "compound": "COC(=O)[C@H](c1ccccc1Cl)N1CCc2sccc2C1 [Clopidogrel bisulfate]",
    "label": 1
  },
  {
    "compound": "C[C@@H](NCCCc1cccc(C(F)(F)F)c1)c1cccc2ccccc12 [Cinacalcet HCl]",
    "label": 1
  },
  {
    "compound": "COCCc1ccc(OCC(O)CNC(C)C)cc1 (stereo not shown) [Metoprolol tartrate]",
    "label": -1
  },
  {
    "compound": "CC(=O)Oc1ccccc1C(=O)O",
    "label": -1
  },
  {
    "compound": "Cc1cc2nc3c(=O)[nH]c(=O)nc-3n(C[C@H](O)[C@H](O)[C@H](O)CO)c2cc1C",
    "label": -1
  },
  {
    "compound": "CC(=O)S[C@@H]1CC2=CC(=O)CC[C@]2(C)[C@H]2CC[C@@]3(C)[C@@H](CC[C@@]34CCC(=O)O4)[C@H]12",
    "label": 1
  },
  {
    "compound": "O=C(NC[C@H]1CN(c2ccc(N3CCOCC3=O)cc2)C(=O)O1)c1ccc(Cl)s1",
    "label": 1
  }
]

---

test: pKa determination by titration in aqueous solution (UV or pH monitored); conditions: aqueous solution, pKa (A = acid), acidic group; average of three determinations

[
  {
    "compound": "NCCCC[C@H](N[C@@H](CCc1ccccc1)C(=O)O)C(=O)N1CCC[C@H]1C(=O)O",
    "pKa": 1.63
  },
  {
    "compound": "Oc1ncnc2[nH]ncc12",
    "pKa": 9.18
  },
  {
    "compound": "O=C1NC(=O)C(c2ccccc2)(c2ccccc2)N1 [Phenytoin sodium]",
    "pKa": 8.18
  },
  {
    "compound": "Cc1cc2nc3c(=O)[nH]c(=O)nc-3n(C[C@H](O)[C@H](O)[C@H](O)CO)c2cc1C",
    "pKa": 9.87
  },
  {
    "compound": "CC1(C)S[C@@H]2[C@H](NC(=O)[C@H](N)c3ccc(O)cc3)C(=O)N2[C@H]1C(=O)O",
    "pKa": 9.59
  }
]

---

assay: In vitro binding assay: free test drug recovered after 3 h incubation with and without patiromer in SGF, acetate buffer or SIF; settings: strong, weak or non-binding

[
  {
    "compound": "CCCCC(=O)N(Cc1ccc(-c2ccccc2-c2nnn[nH]2)cc1)[C@H](C(=O)O)C(C)C [Valsartan]",
    "In vitro patiromer binding category": "non-binding"
  },
  {
    "compound": "COc1cc(Cc2cnc(N)nc2N)cc(OC)c1OC [Trimethoprim]",
    "In vitro patiromer binding category": "strong binders"
  },
  {
    "compound": "C=C[C@H]1C[N@@]2CC[C@H]1C[C@@H]2[C@@H](O)c1ccnc2ccc(OC)cc12 [Quinidine]",
    "In vitro patiromer binding category": "strong binders"
  },
  {
    "compound": "CC1=C(C(=O)O)N2C(=O)[C@@H](NC(=O)[C@H](N)c3ccccc3)[C@H]2SC1 [Cephalexin]",
    "In vitro patiromer binding category": "non-binding"
  }
]

---

test: In vitro binding assay: free test drug recovered after 3 h incubation with and without patiromer in SGF, acetate buffer or SIF; conditions: simulated intestinal fluid, final pH 5.9; patiromer 25.2 g/L, 3 h, 37°C; geometric mean of 12 replicates
Structures can show the parent of a compound that is named as a salt.
readout type: In Vitro Binding (% Drug Recovered) SIF (pH 5.9)

[
  {
    "compound": "CC(=O)Oc1ccccc1C(=O)O",
    "value observed": "99.9%"
  },
  {
    "compound": "CC(=O)S[C@@H]1CC2=CC(=O)CC[C@]2(C)[C@H]2CC[C@@]3(C)[C@@H](CC[C@@]34CCC(=O)O4)[C@H]12",
    "value observed": "96.8%"
  },
  {
    "compound": "O=C([O-])[O-].[Li+].[Li+] [Lithium carbonate]",
    "value observed": "56.9%"
  },
  {
    "compound": "COc1cc(Cc2cnc(N)nc2N)cc(OC)c1OC",
    "value observed": "28.4%"
  },
  {
    "compound": "C[C@@H](NCCCc1cccc(C(F)(F)F)c1)c1cccc2ccccc12 [Cinacalcet HCl]",
    "value observed": "18.3%"
  },
  {
    "compound": "O=C1NC(=O)C(c2ccccc2)(c2ccccc2)N1 [Phenytoin sodium]",
    "value observed": "92.8%"
  },
  {
    "compound": "CC1(C)S[C@@H]2[C@H](NC(=O)[C@H](N)c3ccc(O)cc3)C(=O)N2[C@H]1C(=O)O",
    "value observed": "99.4%"
  },
  {
    "compound": "COc1ccc(-n2nc(C(N)=O)c3c2C(=O)N(c2ccc(N4CCCCC4=O)cc2)CC3)cc1",
    "value observed": "97.8%"
  },
  {
    "compound": "NS(=O)(=O)c1cc(C(=O)O)c(NCc2ccco2)cc1Cl [Furosemide]",
    "value observed": "79.1%"
  },
  {
    "compound": "CCCCC(=O)N(Cc1ccc(-c2ccccc2-c2nnn[nH]2)cc1)[C@H](C(=O)O)C(C)C",
    "value observed": "98%"
  },
  {
    "compound": "C=C[C@H]1C[N@@]2CC[C@H]1C[C@@H]2[C@@H](O)c1ccnc2ccc(OC)cc12",
    "value observed": "24.3%"
  },
  {
    "compound": "CC1=C(C(=O)O)N2C(=O)[C@@H](NC(=O)[C@H](N)c3ccccc3)[C@H]2SC1",
    "value observed": "104.4%"
  },
  {
    "compound": "Oc1ncnc2[nH]ncc12",
    "value observed": "94.2%"
  },
  {
    "compound": "CC(C)c1c(C(=O)Nc2ccccc2)c(-c2ccccc2)c(-c2ccc(F)cc2)n1CC[C@@H](O)C[C@@H](O)CC(=O)O",
    "value observed": "101.1%"
  },
  {
    "compound": "NCCCC[C@H](N[C@@H](CCc1ccccc1)C(=O)O)C(=O)N1CCC[C@H]1C(=O)O",
    "value observed": "98.5%"
  },
  {
    "compound": "Cc1cnc(C(=O)NCCc2ccc(S(=O)(=O)NC(=O)NC3CCCCC3)cc2)cn1 [Glipizide]",
    "value observed": "98.5%"
  },
  {
    "compound": "CN(C)C(=N)N=C(N)N [Metformin HCl]",
    "value observed": "80.2%"
  },
  {
    "compound": "O=C(NC[C@H]1CN(c2ccc(N3CCOCC3=O)cc2)C(=O)O1)c1ccc(Cl)s1",
    "value observed": "95.1%"
  },
  {
    "compound": "Cc1ncc(C[n+]2csc(CCO)c2C)c(N)n1",
    "value observed": "42.9%"
  }
]
